- System: HT29 colon
- protocol.summary: NCI-60 one-dose screen, 48 h
- cond: 10 µM unless noted
The panel holds about 83,000 compounds, 20% with a hit somewhere; the sample as a whole holds those more often. The source made the active and inactive calls. The calls were made as follows: active = growth percent below 10; inactive = the rest.
Classes used: true (1) for active, false (0) for inactive

* Cc1[nH]nc2ccc(-c3nc4cnc(N5CCN(C)CC5)cn4c3Nc3ccc(F)cc3Br)cc12 | true (1)
* Cc1ccc(NC(=O)c2ccc(CN3CCN(C)CC3)c(C(F)(F)F)c2)cc1Oc1ccc(-c2[nH]nc3ncnc(N)c23)cc1 | true (1)
* N#Cc1c(-c2ccccc2)cc(-c2c[nH]c3ccccc23)nc1-c1c[nH]c2ccccc12 | false (0)
* COc1ccc([C@H]2[C@H](O)C(=O)N2c2cc(OC)c(OC)c(OC)c2)cc1O | true (1)
* C#CCOc1ccc(C(Nc2ccc(OC)cc2)c2nnnn2C2CCCCC2)cc1 (centres undefined) | false (0)
* C=CCn1c(SCC(=O)Nc2cccc(C(=O)/C=C/c3ccc(Br)cc3)c2)nc2ccccc2c1=O | false (0)
* O=C(c1cccc(F)c1)n1ccc2cc(NC(=S)Nc3cccnc3)ccc21 | false (0)
* O=C1NC(=O)c2c1c1c3ccccc3ccc1c1[nH]c3ccccc3c21 | false (0)
* COc1ccc(Cn2cc3c(c2-c2cc(OC)c(OC)c(OC)c2)CCCc2cnoc2-3)cc1 | false (0)

* * *

- Tested on: U251 CNS
- protocol.summary: NCI-60 one-dose screen, 48 h (100 = growth as untreated, 0 = no growth, -100 = all killed)
- cond: 10 µM unless noted
This is part of a sample that, as a whole, favours compounds with a hit. Of some 83,000 tested, about 20% had one in any assay.
Catalogue of growth values
result.type: growth (%)

* COC(=O)Nc1ccc(-c2nc(-c3cccc(O)c3)c(-c3ccnc(Br)c3)[nH]2)cc1 | 47
* CCOC(=O)C1=C(C)Nc2nc3ccccc3n2C1c1ccccc1 (stereo not drawn) | 101
* Cc1cc(O)c(=O)cc2c1C[C@H]1CC(C)(C)/C=C/C[C@]3(C)Oc4cc(=O)c(O)cc(C)c4C[C@H]3C[C@H](O)[C@@]1(C)O2 | 3.83
* Cn1c2ccc(Br)cc2c2c3c(c4c5cc(F)ccc5oc4c21)C(=O)N(O)C3=O | 79.8
* NC(=O)c1c(NC(=O)c2cccc(OC(F)(F)F)c2)sc2c1CCC(=O)C2 | 28.7
* CC(C)C[C@H]1C(=O)O[C@H](C(C)C)C(=O)N(C)[C@@H](C(C)C)C(=O)O[C@H](C(C)C)C(=O)N(C)[C@@H](C(C)C)C(=O)O[C@H](C(C)C)C(=O)N1C | 14.1
* CC(C)(C)CC(C)(C)n1nnnc1C(Nc1ccccc1)c1cc2cccc3ccc4cccc1c4c32 (stereo not drawn) | 88.7
* O=C(CN1CCN(c2cc(=O)n(-c3ccccc3)c3ccccc23)CC1)Nc1ccc([N+](=O)[O-])cc1 | 93.9
* Cn1cc(-c2nnc(N)nc2-c2cn(C)c3ccc(F)cc23)c2cc(F)ccc21 | 83.2
* NS(=O)(=O)c1ccc(Nc2nc(N/N=C/c3ccc(F)cc3)nc(Nc3ccccc3)n2)cc1 | 11.9
* O=S(=O)(Nc1ccc2c(c1)OC(F)(F)O2)c1ccc(-c2cnc(C3CC3)o2)cc1 | 32.6
* O=C(COc1cccc2cccnc12)Nc1ccc(C(=O)/C=C/c2ccc(Cl)cc2)cc1 | 92.2
* O=C(CCCCCCN1CC(=O)N2[C@@H](c3cc(F)cc(F)c3)c3[nH]c4ccccc4c3C[C@H]2C1=O)NO | 57.3
* CN1CCN(Cc2ccc(NC(=O)c3cncc(C#Cc4cnc5ccc(O[C@H]6CCOC6)nn45)c3)cc2C(F)(F)F)CC1 | -85.4
* NS(=O)(=O)c1ccc(-n2cc(CC=O)nn2)cc1 | 102
* O=C(COc1ccc(C2SCC(=O)N2c2ccc(F)cc2)cc1)c1ccccc1 (stereo not drawn) | 101
* Cc1ccc(NC(=O)c2cc(/C=C/C(=O)NO)cc(C(F)(F)F)c2)cc1Nc1nccc(-c2cccnc2)n1 | -65.1
* COc1ccc(N2C(=O)c3cc(OC)c(OC)cc3NC2SCc2ccccc2)cc1 (stereo not drawn) | 108

* * *

- Test system: RXF 393 renal
- protocol.summary: NCI-60 one-dose screen, 48 h
- cond: 10 µM unless noted
About 83,000 compounds went through this panel and 20% of them were active in at least one assay; those are over-represented in the sample as a whole. Calls of active or inactive are those of the source. The calls were made as follows: active = growth percent below 10; inactive = the rest.
Classes used: active, inactive

- COc1ccc(Cn2cc3c(c2-c2ccccc2)CCCc2cnoc2-3)cc1[N+](=O)[O-]: inactive
- CCOP(=O)(OCC)OC[C@]12CCC(C)(C)C[C@H]1C1=CC[C@@H]3[C@@]4(C)C/C(=C\c5cccnc5)[C@H](OP(=O)(OCC)OCC)C(C)(C)[C@@H]4CC[C@@]3(C)[C@]1(C)CC2: inactive
- C[C@@H]1C[C@H]2C(=O)OCC(NC(=O)[C@H](Cc3cc(F)cc(F)c3)NC(=O)Nc3ccc(Cl)cc3F)C(=O)N3CCC[C@H]3C(=O)N3CCCC[C@H]3C(=O)N[C@@H](C)C(=O)N2C1 (stereo not given in full): active
- CCN1C(=O)N(CC)C2SC(N/N=C/c3ccc(F)cc3)=NC21 (stereo not given): inactive
- COc1ccc(NS(=O)(=O)c2ccc(-c3cnc(C4CC4)o3)cc2)cc1Cl: active
- Cc1ccc(Cc2cnc(NC(=O)/C(C#N)=C/c3ccc(-c4ccc(Cl)cc4)o3)s2)cc1: inactive
- CS(=O)(=O)c1nccc(-c2c(-c3ccc(F)c(OCc4ccccc4)c3)nc3sccn23)n1: inactive
- CCOC(=O)c1nn(-c2ccccc2)c(=O)c2c(N)c(C#N)c(-c3cccs3)cc12: inactive
- Nc1nc(-c2cccc([N+](=O)[O-])c2)c(N=Nc2cccc(Cl)c2)s1: active
- CN1CCN(Cc2ccc(NC(=O)c3cncc(C#Cc4cnc5ccc(O[C@H]6CCOC6)nn45)c3)cc2C(F)(F)F)CC1: active
- CCN(CC)c1ccc2cc(C(=O)NCCOCCOCCOCCn3cc(CCC(=O)Nc4ccc(C(=O)c5ccc(NC(=O)OC(C)(C)C)cc5)cc4)nn3)c(=O)oc2c1: inactive
- C=C(C)C(=O)O[C@H]1C[C@@]2(C)OC(=CC2=O)/C(CO)=C\[C@H]2OC(=O)C(=C)[C@H]12: active
- COc1ccc(NC(=O)[C@H](C)NC(=O)OC(C)(C)C)cc1C(=O)Nc1cccc(-c2cc(=O)c3c(OC)c(OC)c(OC)cc3o2)c1: active
- CC(=O)C1=NN(c2ccc(Cl)cc2)C(=O)CN1C: inactive
- N#C/C(=C\c1ccc(N2CCCCC2)cc1)C(=O)Nc1sc2c(c1C#N)CCC2: inactive
- C=CCn1c(SCC(=O)Nc2ccc(OC)cc2)nnc1-c1ccc(Cl)cc1: inactive
- N#Cc1c(NC(=O)c2ccc(F)c(Cl)c2)sc2c1CCC(=O)C2: active
- C#C[C@]1(O)CC[C@H]2[C@@H]3CC=C4c5sc(-c6ccc(OC)cc6)nc5CC[C@]4(C)[C@H]3CC[C@@]21C: active
- COc1cc2c3c(n(CCCNC4CCC4)c(=O)c2cc1OC)-c1cc2c(cc1C3=O)OCO2: active
- CN1CCN(c2ccc3c(c2)nc(NNC(=O)c2ccncn2)c2cccn23)CC1: inactive
- CCOC(=O)c1c(NC(=O)c2ccc(C(C)(C)C)cc2)sc2cc(OCCN3CCCCC3)ccc12: inactive
- C=CCn1c(SCC(=O)Nc2cccc(C(=O)/C=C/c3ccc(Br)cc3)c2)nc2ccccc2c1=O: inactive
- Cc1ccc(/C=C/CC(=O)Nc2ccc(C(=O)Nc3ccc(F)cc3N)nc2)cn1: inactive
- Cc1nn(-c2ccccc2)c2nc(CCl)[nH]c(=O)c12: inactive
- CS(=O)(=O)c1ccc2c(c1)c1c(n2S(=O)(=O)c2ccc(Cl)cc2)CCCC1: active
- C=CCn1c(SCC(=O)Nc2cccc(C(=O)/C=C/c3ccc(OC)c(OC)c3)c2)nc2ccccc2c1=O: inactive
- Cc1nn(-c2ccc(Cl)cc2)c(C)c1N=Nc1ccc2oc(=O)ccc2c1: inactive
- C=CCn1c(SCC(=O)Nc2cccc(C(=O)/C=C/c3ccc(C)cc3)c2)nc2ccccc2c1=O: inactive
- C#Cc1ccc(NC(=O)c2ccc(/C=C/C(=O)c3nccn3C)cc2)c(F)c1: inactive
- Oc1ccccc1/C=N/Nc1nc(N/N=C/c2ccccc2O)nc(N2CCOCC2)n1: active
- Cc1cc(=O)n2nc(-c3c[nH]c4ccccc34)sc2n1: inactive
- COc1cc(/C=C/C(=O)c2ccc(NC(=O)CSc3nnc(-c4ccc5nc(-c6ccccc6)[nH]c5c4)o3)cc2)cc(OC)c1OC: active
- C#CCOc1ccc(/C=N/Nc2nc(-c3cc4cc(Br)cc(Br)c4oc3=O)cs2)cc1: inactive
- O=C1CSC(=O)N1Cc1cc2ccccc2nc1Cl: inactive
- C#C[C@]1(O)CC[C@H]2[C@@H]3CC=C4c5sc(-c6ccccn6)nc5CC[C@]4(C)[C@H]3CC[C@@]21C: active
